Assay System: Lethal factor (Bacillus anthracis) (UniProt P15917)
Assay Procedure: Lethal factor protease inhibitors, Bacillus anthracis, multiplex microsphere cleavage assay, validation set (AID 588461)
Setup Conditions: flow cytometry, at 10 µM, stronger effect = higher value
Result Type: inhibition (%)
Numeric answer only, unit % assumed.

These recorded examples may help you get a feel for the data.
>>> reported("Cc1ccc2c(c1)C(O)(C1COC(C)(C)CC1=O)C(=O)N2C (configuration not stated)")
-0.8
>>> reported("COc1ccc(O)c(C(=O)/C=C/c2cc3ccccc3o2)c1")
-3.5

Query: What value of measured inhibition is listed for `COC(=O)c1ccc(=O)n(Cc2ccco2)c1` ?
Reply: 3.8

Query: What value of measured inhibition is listed for `Cc1ccc(S(=O)(=O)Oc2ccccc2/C=N/N=C(N)N)cc1` ?
Reply: -7.6

Query: What value of measured inhibition is listed for COc1ccc(NC(=O)C2OC3OC(C)(C)OC3C3OC(C)(C)OC23)cc1 (configuration not stated) ?
Reply: -5.4

Query: What value of measured inhibition is listed for `Oc1ccc(/C=C/c2cc(O)cc(O)c2)cc1` ?
Reply: 3.7

Query: What value of measured inhibition is listed for `Cc1cccc(C)c1NC1=NCCCS1` ?
Reply: 1.9

Query: What value of measured inhibition is listed for `Cc1ccc(C(=O)COC(=O)c2cccc(N3C(=O)c4c(C)nc5ccccc5c4C3=O)c2)cc1C` ?
Reply: -0.1

Query: What value of measured inhibition is listed for `C[C@H]1O[C@H]1P(=O)(O)O` ?
Reply: -2

Query: What value of measured inhibition is listed for `OCc1cnc[nH]1` ?
Reply: 1.2

Query: What value of measured inhibition is listed for `COc1ccc(/C=C(/C#N)c2cccnc2)cc1OC` ?
Reply: -7.4

Query: What value of measured inhibition is listed for O=C(c1cccnc1)N1N=C(C2CC2)CC1(O)C(F)(F)F (configuration not stated) ?
Reply: 4.2

* * *

Assay Procedure: modulators of LAP4-GFP expression in yeast, primary screen, S. cerevisiae, multiplex flow cytometry (AID 1873)
Setup Conditions: 3 h, at 10 µM, stronger effect = higher value
Results filed as inconclusive are left out.
Measured GFP response vs DMSO of individual entries
Numeric answer only, unit % assumed.

These recorded examples may help you get a feel for the data.
>>> reported("CCn1c(O)c(C(=O)CC2NCCc3ccccc32)c(=O)n(CC)c1=S (configuration not stated)")
132
>>> reported("C[C@H]1CC[C@@]2(C)[C@@H](CC[C@@H]3[C@@H]2CC[C@]2(C)[C@@H](O)CC[C@@H]32)C1")
137
>>> reported("Cc1ccc(-n2c(C)cc(/C=C3/C(=O)NC(=O)N(C)C3=O)c2C)cc1")
103
>>> reported("C[C@H]1CCCC(=O)CCC/C=C/c2cc(O)cc(O)c2C(=O)O1")
96.5
>>> reported("COc1ccc(OC)c(C(O)C(C)N)c1 (configuration not stated)")
87.4
>>> reported("O=c1c2ccccc2nc(/C=C/c2ccc3c(c2)OCO3)n1-c1ccccc1")
110
>>> reported("COc1ccc(C(=O)N2CCCC2=O)cc1")
130
>>> reported("Clc1ccc(COC(Cn2ccnc2)c2ccc(Cl)cc2Cl)cc1 (configuration not stated)")
120

Could you now look at the following compound, please?
Query: What value of measured GFP response vs DMSO is listed for CC(=O)C1=C(C)OC(N)=C(C(=O)OC(C)C)C12C(=O)Nc1ccccc12 (configuration not stated) ?
Reply: 99.4
